Reference for the values: patent US20240327534A1

Target: T1, human BCMA on BCMA expressing cell lines (human, UniProt Q02223 1-184)
T1 sequence: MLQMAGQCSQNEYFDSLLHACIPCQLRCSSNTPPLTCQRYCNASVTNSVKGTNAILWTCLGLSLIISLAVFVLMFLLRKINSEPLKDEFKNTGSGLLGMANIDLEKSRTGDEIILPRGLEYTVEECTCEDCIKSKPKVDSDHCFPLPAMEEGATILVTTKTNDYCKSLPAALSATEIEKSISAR
Test: cell-based or functional assay
Examples of binders with documented TDCC MOLP-8 EC50 follow.
Reported endpoint: TDCC MOLP-8 EC50 (pM)

INSERT INTO measurements (binder, endpoint_value) VALUES
  ('01F07-M34Y TriTAC (other, trispecific; not shown: anti-albumin domain, anti-CD3 domain and the linkers of the TriTAC; the C-terminal His6 that follows them is left out) VHH: EVQLVESGGGLVQPGRSLTLSCAASTNIFSTSPYGWYRQAPGKQRELVAAIHGFSTIYADSVKGRFTISRDNAKNSIYLQMNSLRPEDTALYYCNKVPWGDYHPGNVYWGQGTQVTVSS', 1.5),
  ('02G02-M34Y TriTAC (other, not shown: large carriers; small tags and cut ends, trispecific) VHH: EVQLVESGGGLVQPGRSLTLSCAASTNIFSITPYGWYRQAPGKQRELVAAIHGASTLYADSVKGRFTISRDNAKNSIYLQMNSLRPEDTALYYCNKVPWGDYHPGNVYWGQGTQVTVSS', 5.6),
  ('BCMA targeting trispecific protein 01F07 (other, not shown: large carriers; small tags and cut ends, trispecific; also called 01F07 TriTAC) VHH: EVQLVESGGGLVQPGRSLTLSCAASTNIFSTSPMGWYRQAPGKQRELVAAIHGFSTIYADSVKGRFTISRDNAKNSIYLQMNSLRPEDTALYYCNKVPWGDYHPGNVYWGQGTQVTVSS', 1.5),
  ('BCMA targeting trispecific protein 02B06 (other, not shown: large carriers; small tags and cut ends, trispecific; also called 02B06 TriTAC) VHH: EVQLVESGGGLVQPGRSLTLSCAASTNIFSNSPMGWYRQAPGKQRELVAAIHGFSTLYADSVKGRFTISRDNAKNSIYLQMNSLRPEDTALYYCNKVPWGDYHPGNVYWGQGTQVTVSS', 2.8);
